Experiment: clinical
Set-up: species or system human
Details: human, in vivo, po, 0.15 mg/kg/day

- smiles-string: "Cc1cn2nc(-c3cc(=O)n4cc(N5CCNC6(CC6)C5)ccc4n3)cc(C)c2n1"
  concentration at 43 d postnatal, ng/mL: 62

* * *

Assay: clinical
Set-up: species or system human
Conditions: female, human, in vivo
From the text: The fetal subject assigned to this treatment plan received risdiplam through the carrier after all basic organ systems of the fetal subject had substantially completed fundamental embryogenesis in its third trimester of development in a range of from about thirty-two and a half weeks to its delivery from the carrier at about thirty-eight and a half weeks gestation. […]
property-measured: concentration at 43 d postnatal

- smiles-string: "Cc1cn2nc(-c3cc(=O)n4cc(N5CCNC6(CC6)C5)ccc4n3)cc(C)c2n1"
  property-measured: "concentration at 43 d postnatal"
  endpoint-result: "0.4 ng/mL"

* * *

Experiment: clinical
Set-up: species or system human
Conditions: human, in vivo
property-measured: half-life

- smiles-string: "Cc1cn2nc(-c3cc(=O)n4cc(N5CCNC6(CC6)C5)ccc4n3)cc(C)c2n1"
  property-measured: "half-life"
  endpoint-result: "46 h"

* * *

Assay: clinical
Design: species or system human
Details: female, human, in vivo, Amniotic fluid risdiplam level relative to carrier plasma venous level

- compound: "Cc1cn2nc(-c3cc(=O)n4cc(N5CCNC6(CC6)C5)ccc4n3)cc(C)c2n1 [risdiplam]"
  Kp: "~0.33"
